Biological target: T1, canine OX40L, full length membrane form, expressed on HEK293 cells (canine)
T1 chain: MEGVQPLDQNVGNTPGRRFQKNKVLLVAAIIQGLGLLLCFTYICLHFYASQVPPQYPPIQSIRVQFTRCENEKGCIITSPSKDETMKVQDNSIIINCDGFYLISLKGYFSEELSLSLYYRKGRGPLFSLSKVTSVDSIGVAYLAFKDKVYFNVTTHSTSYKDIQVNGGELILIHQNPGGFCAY
Assay: cell-based or functional assay
measurement label: % Signal Inhibition Rep2 (%)
The reply should be a number in %, with the unit left off.

binder	% Signal Inhibition Rep2 (%)
PMX049 (antibody, V domains shown, also called PMX49) VH: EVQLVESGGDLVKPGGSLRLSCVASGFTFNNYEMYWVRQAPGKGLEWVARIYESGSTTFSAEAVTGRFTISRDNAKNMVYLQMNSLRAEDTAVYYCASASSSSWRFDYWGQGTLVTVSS VL: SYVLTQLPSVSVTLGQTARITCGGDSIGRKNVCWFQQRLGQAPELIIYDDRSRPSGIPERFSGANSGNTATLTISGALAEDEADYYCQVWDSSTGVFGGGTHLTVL	79.3

Would you kindly share the measured % Signal Inhibition Rep2 for PMX036 (antibody, V domains shown, also called PMX36) VH: EVQLVESGGDLVKPGGSLRLSCVASGFTFSSYHMSWVRQAPGKGLQWVAYITSGGRTTSYADAVKGRFTISRDNAKNTLYLQMNSLRAEDTAVYYCASDLVLVLGGADYWGQGTLVTVSS VL: SYELTQPPSVNVTLRETAHITCGGDSIGRKYVQWIQQNPGQAPVVIIYKDTNRPTGIPERFSGANSGNTATLTISGALAEDEADYYCQVGDSGTKAVFGGGTHLTVL ? 79.1

Lookup PMX050 (antibody, V domains shown, also called PMX50) VH: EVQLVESGGDLVKPEGSLRLSCVVSGFTFTTYDMSWVRQAPGKGLQWVAYITNDGRITTYTDAVKGRFTISRDNAKNTLYLQMNSLRTVDTGVYYCARHSSSWSRGRFGLDYWGHGTSVFVSS VL: SYVLTQLPSKNVTLKQPAHITCGGDNIGRKGVHWYQQKLGQAPVLIIYYDSSRPTGIPERFSGANSGNTATLTISGALAEDEADYYCQVWDNSASVFGGGTHLTVL 83.3

Where do the numbers come from? From patent US20250340659A1.
